B1: TPR t1 (parent)
chain: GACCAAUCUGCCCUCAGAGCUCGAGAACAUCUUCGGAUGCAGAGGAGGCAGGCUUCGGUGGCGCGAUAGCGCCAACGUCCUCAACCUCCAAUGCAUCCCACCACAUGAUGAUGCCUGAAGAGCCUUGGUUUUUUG

- Variants of: B1
- METHOD NOTES: polymerase ribozyme fitness, log enrichment relative to wild type (log ratio); higher = more active; in vitro selection for triplet polymerase activity
PROPERTY MEASURED: polymerase ribozyme fitness (log ratio)

- MUTATION NOTATION: "A27C C123A"
  PROPERTY MEASURED: "polymerase ribozyme fitness (log ratio)"
  ENDPOINT RESULT: -3.14
- MUTATION NOTATION: "C3U C64U G71U C85G A121U"
  PROPERTY MEASURED: "polymerase ribozyme fitness (log ratio)"
  ENDPOINT RESULT: -4.22
- MUTATION NOTATION: "C22G C34G C102U C123A"
  PROPERTY MEASURED: "polymerase ribozyme fitness (log ratio)"
  ENDPOINT RESULT: -4.03
- MUTATION NOTATION: "C8A U54G A105G U112A C123G C124A U132C"
  PROPERTY MEASURED: "polymerase ribozyme fitness (log ratio)"
  ENDPOINT RESULT: -1.56
- MUTATION NOTATION: "C73A U78C"
  PROPERTY MEASURED: "polymerase ribozyme fitness (log ratio)"
  ENDPOINT RESULT: -0.268
- MUTATION NOTATION: "G42U C73U"
  PROPERTY MEASURED: "polymerase ribozyme fitness (log ratio)"
  ENDPOINT RESULT: -1.51
- MUTATION NOTATION: "C79U A95C A118U"
  PROPERTY MEASURED: "polymerase ribozyme fitness (log ratio)"
  ENDPOINT RESULT: -0.263
- MUTATION NOTATION: "G63A C114A"
  PROPERTY MEASURED: "polymerase ribozyme fitness (log ratio)"
  ENDPOINT RESULT: -1.9
- MUTATION NOTATION: "A2U A5C C62A G93C"
  PROPERTY MEASURED: "polymerase ribozyme fitness (log ratio)"
  ENDPOINT RESULT: -5.08
- MUTATION NOTATION: "C8A A74U"
  PROPERTY MEASURED: "polymerase ribozyme fitness (log ratio)"
  ENDPOINT RESULT: -0.0501
- MUTATION NOTATION: "A18G G36A U116C A118G"
  PROPERTY MEASURED: "polymerase ribozyme fitness (log ratio)"
  ENDPOINT RESULT: -2.17
- MUTATION NOTATION: "G39A C56A G120U"
  PROPERTY MEASURED: "polymerase ribozyme fitness (log ratio)"
  ENDPOINT RESULT: -0.286
- MUTATION NOTATION: "C12G A46G G48A C79A"
  PROPERTY MEASURED: "polymerase ribozyme fitness (log ratio)"
  ENDPOINT RESULT: -2.27
- MUTATION NOTATION: "A24G C114G"
  PROPERTY MEASURED: "polymerase ribozyme fitness (log ratio)"
  ENDPOINT RESULT: -3.83
- MUTATION NOTATION: "C49U C89U"
  PROPERTY MEASURED: "polymerase ribozyme fitness (log ratio)"
  ENDPOINT RESULT: 0.0169
- MUTATION NOTATION: "G61A A74U G110U A118G"
  PROPERTY MEASURED: "polymerase ribozyme fitness (log ratio)"
  ENDPOINT RESULT: -4.67
- MUTATION NOTATION: "G69C U106A C124A G128A"
  PROPERTY MEASURED: "polymerase ribozyme fitness (log ratio)"
  ENDPOINT RESULT: -1.94
- MUTATION NOTATION: "A29G G60A C86U"
  PROPERTY MEASURED: "polymerase ribozyme fitness (log ratio)"
  ENDPOINT RESULT: -2.06
- MUTATION NOTATION: "C62U A74U U78A"
  PROPERTY MEASURED: "polymerase ribozyme fitness (log ratio)"
  ENDPOINT RESULT: -0.615
- MUTATION NOTATION: "C62A U125G"
  PROPERTY MEASURED: "polymerase ribozyme fitness (log ratio)"
  ENDPOINT RESULT: -1.43
- MUTATION NOTATION: "C40G G69A"
  PROPERTY MEASURED: "polymerase ribozyme fitness (log ratio)"
  ENDPOINT RESULT: -3.43
- MUTATION NOTATION: "A6C C12A C53U U78C"
  PROPERTY MEASURED: "polymerase ribozyme fitness (log ratio)"
  ENDPOINT RESULT: -1.07
- MUTATION NOTATION: "G48U C56A C114G G127C"
  PROPERTY MEASURED: "polymerase ribozyme fitness (log ratio)"
  ENDPOINT RESULT: -5.92
- MUTATION NOTATION: "G52A G60A"
  PROPERTY MEASURED: "polymerase ribozyme fitness (log ratio)"
  ENDPOINT RESULT: -0.303
- MUTATION NOTATION: "C15A C76U A83U C86A"
  PROPERTY MEASURED: "polymerase ribozyme fitness (log ratio)"
  ENDPOINT RESULT: -3.37
- MUTATION NOTATION: "G52A A68G"
  PROPERTY MEASURED: "polymerase ribozyme fitness (log ratio)"
  ENDPOINT RESULT: -3.34
- MUTATION NOTATION: "C98U C115A"
  PROPERTY MEASURED: "polymerase ribozyme fitness (log ratio)"
  ENDPOINT RESULT: -2
- MUTATION NOTATION: "C8G G69U"
  PROPERTY MEASURED: "polymerase ribozyme fitness (log ratio)"
  ENDPOINT RESULT: 0.724
- MUTATION NOTATION: "A75G U112A U131A"
  PROPERTY MEASURED: "polymerase ribozyme fitness (log ratio)"
  ENDPOINT RESULT: 1.22
- MUTATION NOTATION: "A91C A103C"
  PROPERTY MEASURED: "polymerase ribozyme fitness (log ratio)"
  ENDPOINT RESULT: -7.08
- MUTATION NOTATION: "G39C A66U A75G C88G C123U"
  PROPERTY MEASURED: "polymerase ribozyme fitness (log ratio)"
  ENDPOINT RESULT: -3.46
- MUTATION NOTATION: "A43C G117A"
  PROPERTY MEASURED: "polymerase ribozyme fitness (log ratio)"
  ENDPOINT RESULT: -3.01
- MUTATION NOTATION: "U9A A24G G42A G52C C72A"
  PROPERTY MEASURED: "polymerase ribozyme fitness (log ratio)"
  ENDPOINT RESULT: -3.17
- MUTATION NOTATION: "A41U G45A C56A G113A"
  PROPERTY MEASURED: "polymerase ribozyme fitness (log ratio)"
  ENDPOINT RESULT: -3.04
- MUTATION NOTATION: "A50C C123A"
  PROPERTY MEASURED: "polymerase ribozyme fitness (log ratio)"
  ENDPOINT RESULT: -0.166
- MUTATION NOTATION: "C8A C79A"
  PROPERTY MEASURED: "polymerase ribozyme fitness (log ratio)"
  ENDPOINT RESULT: -0.182
- MUTATION NOTATION: "C11A U67C"
  PROPERTY MEASURED: "polymerase ribozyme fitness (log ratio)"
  ENDPOINT RESULT: -5.83
- MUTATION NOTATION: "C3G G48C C89U U132C"
  PROPERTY MEASURED: "polymerase ribozyme fitness (log ratio)"
  ENDPOINT RESULT: -1.66
- MUTATION NOTATION: "U125A U133A"
  PROPERTY MEASURED: "polymerase ribozyme fitness (log ratio)"
  ENDPOINT RESULT: -0.956
- MUTATION NOTATION: "G63A C79G"
  PROPERTY MEASURED: "polymerase ribozyme fitness (log ratio)"
  ENDPOINT RESULT: -3.65
- MUTATION NOTATION: "C11A A95G"
  PROPERTY MEASURED: "polymerase ribozyme fitness (log ratio)"
  ENDPOINT RESULT: -1.37
- MUTATION NOTATION: "G52A A118G"
  PROPERTY MEASURED: "polymerase ribozyme fitness (log ratio)"
  ENDPOINT RESULT: -0.546
- MUTATION NOTATION: "C62A C104A A119U"
  PROPERTY MEASURED: "polymerase ribozyme fitness (log ratio)"
  ENDPOINT RESULT: -3.63
- MUTATION NOTATION: "C20G G135C"
  PROPERTY MEASURED: "polymerase ribozyme fitness (log ratio)"
  ENDPOINT RESULT: -3.68
- MUTATION NOTATION: "C56A G122A"
  PROPERTY MEASURED: "polymerase ribozyme fitness (log ratio)"
  ENDPOINT RESULT: -0.936
- MUTATION NOTATION: "C4U A16G C49U G69A G71C U78G C82U A84U C115A"
  PROPERTY MEASURED: "polymerase ribozyme fitness (log ratio)"
  ENDPOINT RESULT: -6.51

Where do these numbers come from? They come from the RNAGym collection of RNA variant scans (doi:10.1073/pnas.2313332121).
